Attribute: Thermal Melting (Δ° C.), Quadruplex DNA, 1:4 ratio
tested on: Human Telomere (HT) quadruplex DNA; assay: Thermal melting UV-Vis absorbance, quadruplex DNA; assay type: binding; conditions: 1:4 ratio
measuredQuantity: Thermal Melting (Δ° C.), Quadruplex DNA, 1:4 ratio

In [3]: df
Out[3]:
                             chemicalsmiles           result
0  CC1(C)C(/C=C/C(=C/C=C2\N(CCC[N+](C)(C)C)c3ccccc3C2(C)C)c2ccncc2)=[N+](CCC[N+](C)(C)C)c2ccccc21   3.5 +/− 0.8 °C
1  CC1(C)C(/C=C/C(Cl)=C/C=C2\N(CCC[N+](C)(C)C)c3ccc(F)cc3C2(C)C)=[N+](CCC[N+](C)(C)C)c2ccc(F)cc21   8.0 +/− 0.7 °C
2  CC1(C)C(/C=C/C(Br)=C/C=C2\N(CCC[N+](C)(C)C)c3ccc(F)cc3C2(C)C)=[N+](CCC[N+](C)(C)C)c2ccc(F)cc21  13.3 +/− 0.4 °C
3  CCCCn1/c(=C/C=C/C2=[N+](CCC[N+](C)(C)C)c3ccccc3C2(C)C)c2cccc3cccc1c32  20.4 +/− 1.0 °C

====

test system: Human Telomere (HT) quadruplex DNA; assay: Thermal melting UV-Vis absorbance, quadruplex DNA; assay type: binding; conditions: ratio 1:1 (R)
Attribute: Change in Thermal Melting Points, Human Telomere (HT), 1:1
measuredQuantity: Change in Thermal Melting Points, Human Telomere (HT), 1:1

compound	readoutNumber
CC1(C)C(=CC=CC2=[N+](CCC[N+](C)(C)C)c3ccccc3C2(C)C)N(CCC[N+](C)(C)C)c2ccccc21.[Br-].[Br-].[Br-] [MH4 (26)]	1.6
CC1(C)C(=CC=CC2=[N+](CCC[N+](C)(C)C)c3ccc(S(=O)(=O)[O-])cc3C2(C)C)N(CCC[N+](C)(C)C)c2ccc(S(=O)(=O)[O-])cc21.[Br-] [MH2 (31)]	1.5
CC1(C)C(=CC=CC2=[N+](CCC[N+](C)(C)C)c3ccc(Cl)cc3C2(C)C)N(CCC[N+](C)(C)C)c2ccc(Cl)cc21.[Br-].[Br-].[Br-] [A-138 (17)]	3.0
CC1(C)C(/C=C/C=C2/N(CCC[N+](C)(C)C)c3ccc(Br)cc3C2(C)C)=[N+](CCC[N+](C)(C)C)c2ccc(Br)cc21 [MH5 (28)]	1
CC1(C)C(/C=C/C(Cl)=C/C=C2\N(CCC[N+](C)(C)C)c3ccccc3C2(C)C)=[N+](CCC[N+](C)(C)C)c2ccccc21.[Br-].[Br-].[Br-] [A-20 (42)]	2.6
CC1(C)C(/C=C/C(Br)=C/C=C2\N(CCC[N+](C)(C)C)c3ccccc3C2(C)C)=[N+](CCC[N+](C)(C)C)c2ccccc21 [A-C8 (43)]	2.0
CC1(C)C(/C=C/C(Br)=C/C=C2/N(CCC[N+](C)(C)C)c3ccc(I)cc3C2(C)C)=[N+](CCC[N+](C)(C)C)c2ccc(I)cc21 [A-161 (50)]	4.1

====

experiment: Trypan blue exclusion assay for cell viability, HDF; type: cell-based; conditions: human, HDF cells (non-cancerous cell line); at the lower dose (5 μM); read-out: cell viability of normal cells (HDF)
measuredQuantity: viability at 5 µM (%)

In [3]: df
Out[3]:
                             chemicalsmiles   measuredquantity  unitslabel  readoutnumber
0  CC1(C)C(/C=C/C(Br)=C/C=C2/N(CCC[N+](C)(C)C)c3ccc(I)cc3C2(C)C)=[N+](CCC[N+](C)(C)C)c2ccc(I)cc21  viability at 5 µM           %            100
